Assay: Metabolic stability in human liver microsomes assessed as half life at 1 uM incubated for 30 mins by LC-MS/MS analysis
Type: ADME, Microsome
readout-label: half-life at 1 µM (h)
Record the value in h, omitting the unit from your answer.

Below, each entry is followed by its recorded half-life at 1 µM result.
INSERT INTO assay_data (molecule, readout_label, observed_result) VALUES
  ('O=C(Nc1ccc(Br)cc1)NC1(C(=O)Nc2cncnc2)CCCC1', 'half-life at 1 µM', 1.83),
  ('O=C(Nc1ccc(Br)cc1)NC(C(=O)Nc1cccnn1)C1CCCC1 (configuration not stated)', 'half-life at 1 µM', 0.267),
  ('O=C(Nc1ccc(Br)cc1)NC(CC1CCCCC1)C(=O)Nc1cccnc1 (configuration not stated)', 'half-life at 1 µM', 1.02);

Query: Need half-life at 1 µM of O=C(Nc1ccc(Br)cc1)NC1(C(=O)Nc2ccc(Cl)nc2)CCCC1 , thanks.
Result: 0.867

Query: Need half-life at 1 µM of Cc1ccc(NC(=O)C2(NC(=O)Nc3ccc(Br)cc3)CCCC2)cn1 , thanks.
Result: 1.67

Query: Need half-life at 1 µM of O=C(Nc1ccc(Br)cc1)NC(C(=O)NCC1CCCO1)C1CCCC1 (configuration not stated) , thanks.
Result: 0.217

Query: Need half-life at 1 µM of CN1CCC(NC(=O)C(NC(=O)Nc2ccc(Br)cc2)C2CCCC2)CC1 (configuration not stated) , thanks.
Result: 1.83

Query: Need half-life at 1 µM of O=C(Nc1ccc(Br)cc1)NC(C(=O)Nc1cccnc1)C1CC1 (configuration not stated) , thanks.
Result: 1.33

Query: Need half-life at 1 µM of CC(C)n1cc(NC(=O)C2(NC(=O)Nc3ccc(Br)cc3)CCCC2)cn1 , thanks.
Result: 2.17

Query: Need half-life at 1 µM of O=C(Nc1ccc(Br)cc1)NC(C(=O)NC1CCOCC1)C1CCCC1 (configuration not stated) , thanks.
Result: 3.45

Query: Need half-life at 1 µM of CC(C)C[C@H](NC(=O)Nc1ccc(Br)cc1)C(=O)Nc1cccnc1 , thanks.
Result: 1.58

Query: Need half-life at 1 µM of CN1CCC(NC(=O)C2(NC(=O)Nc3ccc(Br)cc3)CCCC2)CC1 , thanks.
Result: 2.62

Query: Need half-life at 1 µM of Cc1nn(C)cc1NC(=O)C1(NC(=O)Nc2ccc(Br)cc2)CCCC1 , thanks.
Result: 2.6

Query: Need half-life at 1 µM of O=C(Nc1ccc(Br)cc1)N[C@@H](CC1CC1)C(=O)Nc1cccnc1 , thanks.
Result: 1.52

Query: Need half-life at 1 µM of O=C(Nc1ccc(Br)cc1)NC(C(=O)Nc1cccnc1)C1CCCC1 (configuration not stated) , thanks.
Result: 1.38

Query: Need half-life at 1 µM of O=C(Nc1ccc(Br)cc1)NC(C(=O)Nc1cncnc1)C1CCCC1 (configuration not stated) , thanks.
Result: 3.07

Query: Need half-life at 1 µM of O=C(CNC(=O)Nc1ccc(Br)cc1)Nc1cccnc1 , thanks.
Result: 1.87

Query: Need half-life at 1 µM of O=C(Nc1ccc(Br)cc1)NC1(C(=O)NCc2nn[nH]n2)CCCC1 , thanks.
Result: 8.67
